The origin of these recorded values is the supplement of paper PMC10307832.

Reported relative viability values for the following compounds.
- System: HCC-366
- Protocol text: relative viability (nuclei count vs DMSO), 5 days (fraction); higher = more cells survive
- Condition label: first compound 0.3162 µM
Answer as a number with no unit attached.

Solved cases (4 shown):
- Compound: "CC(C)Oc1cc(Nc2nc(N[C@@H](C)c3ccc(F)cn3)ncc2Cl)n[nH]1 [AZ23] + C[C@@H](Oc1cc(-c2cnn(C3CCNCC3)c2)cnc1N)c1c(Cl)ccc(F)c1Cl [Crizotinib] (partner 1 µM)"
  Experimental readout: "relative viability"
  Measured: 0.587
- Compound: "CC(C)Oc1cc(Nc2nc(N[C@@H](C)c3ccc(F)cn3)ncc2Cl)n[nH]1 [AZ23] + CC(=O)Nc1cccc(-n2c(=O)n(C3CC3)c(=O)c3c(Nc4ccc(I)cc4F)n(C)c(=O)c(C)c32)c1 [Trametinib] (partner 0.02 µM)"
  Experimental readout: "relative viability"
  Measured: 0.33
- Compound: "CC(C)Oc1cc(Nc2nc(N[C@@H](C)c3ccc(F)cn3)ncc2Cl)n[nH]1 [AZ23] + COc1cccc2cc(-c3nc([C@H]4CC[C@H](C(=O)O)CC4)n4ncnc(N)c34)[nH]c12 [OSI-027] (partner 0.5 µM)"
  Experimental readout: "relative viability"
  Measured: 1.05
- Compound: "CC(C)Oc1cc(Nc2nc(N[C@@H](C)c3ccc(F)cn3)ncc2Cl)n[nH]1 [AZ23] + N=C(N)NC(=N)NCCc1ccccc1 [Phenformin] (partner 250 µM)"
  Experimental readout: "relative viability"
  Measured: 0.658

// fetch relative viability given entry CC(C)Oc1cc(Nc2nc(N[C@@H](C)c3ccc(F)cn3)ncc2Cl)n[nH]1 [AZ23] + O=C(CCCCCCC(=O)Nc1ccccc1)NO [Vorinostat] (partner 1 µM) 0.441

* * *

- Tested on: SW 1573
- Protocol text: relative viability (nuclei count vs DMSO), 5 days (fraction); higher = more cells survive
- Condition label: first compound 0.4 µM
Experimental readout: relative viability
Answer as a number with no unit attached.

- Compound: "C[C@@H]1CN(CC(=O)Nc2ccc3c(c2)Cc2cccc(-c4cc(=O)cc(N5CCOCC5)o4)c2S3)C[C@H](C)O1 + CC(=O)Nc1cccc(-n2c(=O)n(C3CC3)c(=O)c3c(Nc4ccc(I)cc4F)n(C)c(=O)c(C)c32)c1 [Trametinib] (partner 0.02 µM)"
  relative viability: 0.572

Now take the following compound into account.
// fetch relative viability given entry COc1cc(N2CCC(C(N)=O)CC2)ccc1Nc1nc(N)c(Cl)c(Nc2ccccc2S(=O)(=O)C(C)C)n1 [HG-5-88-01] + O=C(c1cc(Cc2n[nH]c(=O)c3ccccc23)ccc1F)N1CCN(C(=O)C2CC2)CC1 [Olaparib] (partner 8 µM) 0.438

* * *

- System: NCI-H460
- Protocol text: relative viability (nuclei count vs DMSO), 5 days (fraction); higher = more cells survive
- Condition label: first compound 4 µM
// boundary case: relative viability equal to 0.4 maps to criterion not met; strictly smaller maps to criterion met

- Molecule: "COc1cc(N2CCC(C(N)=O)CC2)ccc1Nc1nc(N)c(Cl)c(Nc2ccccc2S(=O)(=O)C(C)C)n1 [HG-5-88-01] + Nc1nc2[nH]cc(CCc3ccc(C(=O)N[C@@H](CCC(=O)O)C(=O)O)cc3)c2c(=O)[nH]1 [Pemetrexed] (partner 0.2 µM)"
  Assigned label: "criterion met"
- Molecule: "Clc1ccc(Nc2nnc(Cc3ccncc3)c3ccccc23)cc1 [Vatalanib] + Nc1ncn([C@H]2C[C@H](O)[C@@H](CO)O2)c(=O)n1 [Decitabine] (partner 2 µM)"
  Assigned label: "criterion not met"
- Molecule: "C[C@@H]1CN(CC(=O)Nc2ccc3c(c2)Cc2cccc(-c4cc(=O)cc(N5CCOCC5)o4)c2S3)C[C@H](C)O1 + C[C@]1(O)C[C@@H](c2nc(-c3ccc4ccc(-c5ccccc5)nc4c3)c3c(N)nccn32)C1 [Linsitinib] (partner 1 µM)"
  Assigned label: "criterion met"
- Molecule: "C[C@@H]1CN(CC(=O)Nc2ccc3c(c2)Cc2cccc(-c4cc(=O)cc(N5CCOCC5)o4)c2S3)C[C@H](C)O1 + CC(=O)c1c(C)c2cnc(Nc3ccc(N4CCNCC4)cn3)nc2n(C2CCCC2)c1=O [Palbociclib] (partner 0.5 µM)"
  Assigned label: "criterion met"
- Molecule: "Clc1ccc(Nc2nnc(Cc3ccncc3)c3ccccc23)cc1 [Vatalanib] + Cc1nc(NC(=O)N2CCC[C@H]2C(N)=O)sc1-c1ccnc(C(C)(C)C(F)(F)F)c1 [Alpelisib] (partner 2 µM)"
  Assigned label: "criterion not met"
- Molecule: "Clc1ccc(Nc2nnc(Cc3ccncc3)c3ccccc23)cc1 [Vatalanib] + CC(=O)c1c(C)c2cnc(Nc3ccc(N4CCNCC4)cn3)nc2n(C2CCCC2)c1=O [Palbociclib] (partner 0.5 µM)"
  Assigned label: "criterion met"
- Molecule: "COc1cc(N2CCC(C(N)=O)CC2)ccc1Nc1nc(N)c(Cl)c(Nc2ccccc2S(=O)(=O)C(C)C)n1 [HG-5-88-01] + O=C(c1cc(Cc2n[nH]c(=O)c3ccccc23)ccc1F)N1CCN(C(=O)C2CC2)CC1 [Olaparib] (partner 8 µM)"
  Assigned label: "criterion not met"

Given COc1cc(N2CCC(C(N)=O)CC2)ccc1Nc1nc(N)c(Cl)c(Nc2ccccc2S(=O)(=O)C(C)C)n1 [HG-5-88-01] + CC1(C)CCC(c2ccc(Cl)cc2)=C(CN2CCN(c3ccc(C(=O)NS(=O)(=O)c4ccc(N[C@H](CCN5CCOCC5)CSc5ccccc5)c(S(=O)(=O)C(F)(F)F)c4)cc3)CC2)C1 [Navitoclax] (partner 0.5 µM) , is recorded relative viability strictly lower than 0.4? criterion not met
